Each recorded value in this set is attributed to ChEMBL document CHEMBL1145107.

# TARGET_DESC: Mu-type opioid receptor (Cavia porcellus)
# Sequence (P97266 whole entry): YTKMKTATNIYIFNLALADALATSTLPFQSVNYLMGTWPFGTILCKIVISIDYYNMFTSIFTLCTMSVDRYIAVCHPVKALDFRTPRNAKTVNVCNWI
# ASSAY: In vitro bioassay data to determine the effective concentration required for antagonistic activity against Opioid receptor mu 1 in functional assay, GPI
MEASURED_ENDPOINT: pEC50
// pEC50 is dimensionless: -log10 of concentration (M)

Please provide the recorded pEC50 for `Cc1cc(O)cc(C)c1[C@@H](C)[C@@H](N)C(=O)N[C@H]1C(=O)NCC(=O)N[C@@H](Cc2ccccc2)C(=O)N[C@@H](C(=O)O)C(C)(C)SSC1(C)C` , tested on Mu-type opioid receptor (Cavia porcellus). 4.30

###

UniProt P35372 data, read-out IC50
Write the answer as a number in µM, unit excluded.

Some solved entries appear below for comparison.
Cc1cc(O)cc(C)c1[C@@H](C)[C@H](N)C(=O)N[C@H]1C(=O)NCC(=O)N[C@@H](Cc2ccccc2)C(=O)N[C@@H](C(=O)O)C(C)(C)SSC1(C)C : 4.3
Cc1cc(O)cc(C)c1[C@@H](C)[C@@H](N)C(=O)N[C@H]1C(=O)NCC(=O)N[C@@H](Cc2ccccc2)C(=O)N[C@@H](C(=O)O)C(C)(C)SSC1(C)C : 77

Below: the item to evaluate.
Test system UniProt P35372; read-out IC50; what value for `Cc1cc(O)cc(C)c1[C@H](C)[C@H](N)C(=O)N[C@H]1C(=O)NCC(=O)N[C@@H](Cc2ccccc2)C(=O)N[C@@H](C(=O)O)C(C)(C)SSC1(C)C` ? 0.72

###

# TARGET_DESC: Delta-type opioid receptor (Mus musculus, UniProt P32300)
# Sequence (P32300 whole entry): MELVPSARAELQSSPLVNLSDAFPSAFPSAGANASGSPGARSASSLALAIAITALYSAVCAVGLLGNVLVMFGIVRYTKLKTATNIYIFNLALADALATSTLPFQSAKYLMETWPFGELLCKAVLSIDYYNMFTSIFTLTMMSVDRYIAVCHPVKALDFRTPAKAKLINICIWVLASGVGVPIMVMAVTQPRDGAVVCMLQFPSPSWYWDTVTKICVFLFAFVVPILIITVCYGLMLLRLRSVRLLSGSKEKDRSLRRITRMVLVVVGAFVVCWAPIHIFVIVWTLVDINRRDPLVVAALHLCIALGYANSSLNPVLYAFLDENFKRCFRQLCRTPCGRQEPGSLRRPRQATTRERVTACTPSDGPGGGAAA
# ASSAY: In vitro bioassay data to determine the effective concentration required for antagonistic activity against Opioid receptor delta 1 in functional assay, MVD
MEASURED_ENDPOINT: pEC50
The value called pEC50 is obtained by taking minus log10 of the concentration in mol/L.

What pEC50 value was documented for this compound, `Cc1cc(O)cc(C)c1[C@@H](C)[C@@H](N)C(=O)N[C@H]1C(=O)NCC(=O)N[C@@H](Cc2ccccc2)C(=O)N[C@@H](C(=O)O)C(C)(C)SSC1(C)C` ? 5.66

###

We begin with a simple list: items and their reported Ki.
# TARGET_DESC: Mu-type opioid receptor (Homo sapiens, UniProt P35372)
# Sequence (P35372 whole entry): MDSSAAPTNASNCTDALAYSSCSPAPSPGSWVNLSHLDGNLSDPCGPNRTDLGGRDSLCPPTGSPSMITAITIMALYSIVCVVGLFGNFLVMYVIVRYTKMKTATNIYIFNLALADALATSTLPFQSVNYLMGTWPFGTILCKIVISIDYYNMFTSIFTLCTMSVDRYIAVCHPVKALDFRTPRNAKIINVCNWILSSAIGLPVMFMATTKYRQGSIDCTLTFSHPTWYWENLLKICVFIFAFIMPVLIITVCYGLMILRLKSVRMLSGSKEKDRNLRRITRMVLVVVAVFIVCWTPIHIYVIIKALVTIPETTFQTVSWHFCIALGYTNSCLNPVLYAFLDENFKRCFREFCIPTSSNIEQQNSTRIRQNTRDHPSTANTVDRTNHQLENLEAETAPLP
Where a SMILES comes first, the peptide text is derived from it. [ ]: non-standard residue; d: D form. NMeNle = CCCC[C@H](NC)C(=O)O
API: value field is a number in nM; no unit string.

CCCC[C@@H](C(=O)N[C@@H](CC(=O)O)C(=O)N[C@@H](Cc1ccccc1)C(N)=O)N(C)C(=O)[C@H](Cc1c[nH]c2ccccc12)NC(=O)CNC(=O)CNC(=O)[C@@H](N)Cc1ccc(O)cc1 (H-YGGW[NMeNle]DF-NH2) : 610

// Ki lookup, key: CCCC[C@@H](C(=O)N[C@@H](CC(=O)O)C(=O)N[C@@H](Cc1ccccc1)C(N)=O)N(C)C(=O)[C@@H](Cc1c[nH]c2ccccc12)NC(=O)CNC(=O)[C@@H](Cc1ccccc1)NC(=O)[C@@H](N)Cc1ccc(O)cc1 (H-Y[dF]G[dW][NMeNle]DF-NH2) 5.7

###

Listing of entries alongside the reported Ki.
# TARGET_DESC: Mu-type opioid receptor (Homo sapiens, UniProt P35372)
Where a SMILES comes first, the peptide text is derived from it. [ ]: non-standard residue; d: D form. NMeNle = CCCC[C@H](NC)C(=O)O; dNle = CCCC[C@@H](N)C(=O)O
Field format: number, assumed nM, no unit text.

Solved cases below.
CCCC[C@@H](NC(=O)[C@@H](N)Cc1ccc(O)cc1)C(=O)NCC(=O)N[C@@H](Cc1c[nH]c2ccccc12)C(=O)N(C)[C@@H](CCCC)C(=O)N[C@@H](CC(=O)O)C(=O)N[C@@H](Cc1ccccc1)C(N)=O (H-Y[dNle]GW[NMeNle]DF-NH2) : 25
CCCC[C@@H](C(=O)N[C@@H](CC(=O)O)C(=O)N[C@@H](Cc1ccccc1)C(N)=O)N(C)C(=O)[C@@H](Cc1c[nH]c2ccccc12)NC(=O)CNC(=O)[C@@H](C)NC(=O)[C@@H](N)Cc1ccc(O)cc1 (H-Y[dA]G[dW][NMeNle]DF-NH2) : 20
CCCC[C@@H](C(=O)N[C@@H](CC(=O)O)C(=O)N[C@@H](Cc1ccccc1)C(N)=O)N(C)C(=O)[C@H](Cc1c[nH]c2ccccc12)NC(=O)CNC(=O)[C@@H](Cc1ccccc1)NC(=O)[C@H](Cc1ccc(O)cc1)NC(=O)[C@@H](N)CC(=O)O : 5200

# value lookup — system Mu-type opioid receptor (Homo sapiens, UniProt P35372), readout Ki, item `CCCC[C@@H](C(=O)N[C@@H](CC(=O)O)C(=O)N[C@@H](Cc1ccccc1)C(N)=O)N(C)C(=O)[C@H](Cc1c[nH]c2ccccc12)NC(=O)[C@H](CCC(=O)O)NC(=O)[C@@H](Cc1ccccc1)NC(=O)[C@@H](N)Cc1ccc(O)cc1` 136
